Every entry's value here was drawn from patent US7423149B2.

molecular target: human Dopamine D1 receptor (Homo sapiens, UniProt P21728); construct: expressed in transfected cells; host or cells: Ltk- cells (mouse fibroblasts), membrane preparation; test: radioligand binding competition assay, displacement of [3H]SCH 23390 from D1 receptor (Ltk-cells membranes); details: class combines Ki (D1) and, for A and B, D2:D1 selectivity (Ki D2 / Ki D1); read-out: D1 binding and D2:D1 Selectivity;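 further: under 5 nM class also requires D2 to D1 selectivity above 500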
Sequence (P21728 whole entry): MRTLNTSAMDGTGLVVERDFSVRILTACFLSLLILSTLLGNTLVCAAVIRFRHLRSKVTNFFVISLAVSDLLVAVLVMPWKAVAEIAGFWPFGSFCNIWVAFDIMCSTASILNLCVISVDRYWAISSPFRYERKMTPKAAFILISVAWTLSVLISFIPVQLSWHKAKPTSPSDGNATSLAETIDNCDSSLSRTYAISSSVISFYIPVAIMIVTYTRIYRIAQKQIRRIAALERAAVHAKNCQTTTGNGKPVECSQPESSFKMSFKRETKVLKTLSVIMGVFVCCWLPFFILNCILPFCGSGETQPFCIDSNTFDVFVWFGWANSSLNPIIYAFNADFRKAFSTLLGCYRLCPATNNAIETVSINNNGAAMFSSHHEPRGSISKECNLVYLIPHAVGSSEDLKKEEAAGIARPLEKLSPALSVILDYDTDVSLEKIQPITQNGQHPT
Measured Ki, listed per entry for reference.

Compound: N=C(/C=C/c1ccc(Cc2cccnc2)cc1)Nc1ccc2c(c1)OCO2 [Example 22]
Ki: 50 to 10000 nM

Compound: N#Cc1cccc(-c2ccc(/C=C/C(=N)Nc3ccc(Cl)cc3)cc2)c1 [Example 30]
Ki: 10 to 50 nM

Compound: N=C(/C=C/c1ccc(-n2ccnc2)cc1)Nc1ccc(Cl)cc1 [Example 88]
Ki: 50 to 10000 nM

Compound: N=C(/C=C/c1ccc(Cc2c[nH]cn2)cc1)Nc1ccc(Cl)cc1 [Example 57]
Ki: 10 to 50 nM

Compound: COc1ccc(/C=C/C(=N)Nc2cc(F)cc(F)c2)cc1 [Example 55]
Ki: 10 to 50 nM
